- experimental target: LRRK2(G2019S mutation, GST-LRRK2(amino acids 970-2527)) (Homo sapiens (Human), UniProt Q5S007, G2019S)
- Sequence (Q5S007 970-2527 G2019S): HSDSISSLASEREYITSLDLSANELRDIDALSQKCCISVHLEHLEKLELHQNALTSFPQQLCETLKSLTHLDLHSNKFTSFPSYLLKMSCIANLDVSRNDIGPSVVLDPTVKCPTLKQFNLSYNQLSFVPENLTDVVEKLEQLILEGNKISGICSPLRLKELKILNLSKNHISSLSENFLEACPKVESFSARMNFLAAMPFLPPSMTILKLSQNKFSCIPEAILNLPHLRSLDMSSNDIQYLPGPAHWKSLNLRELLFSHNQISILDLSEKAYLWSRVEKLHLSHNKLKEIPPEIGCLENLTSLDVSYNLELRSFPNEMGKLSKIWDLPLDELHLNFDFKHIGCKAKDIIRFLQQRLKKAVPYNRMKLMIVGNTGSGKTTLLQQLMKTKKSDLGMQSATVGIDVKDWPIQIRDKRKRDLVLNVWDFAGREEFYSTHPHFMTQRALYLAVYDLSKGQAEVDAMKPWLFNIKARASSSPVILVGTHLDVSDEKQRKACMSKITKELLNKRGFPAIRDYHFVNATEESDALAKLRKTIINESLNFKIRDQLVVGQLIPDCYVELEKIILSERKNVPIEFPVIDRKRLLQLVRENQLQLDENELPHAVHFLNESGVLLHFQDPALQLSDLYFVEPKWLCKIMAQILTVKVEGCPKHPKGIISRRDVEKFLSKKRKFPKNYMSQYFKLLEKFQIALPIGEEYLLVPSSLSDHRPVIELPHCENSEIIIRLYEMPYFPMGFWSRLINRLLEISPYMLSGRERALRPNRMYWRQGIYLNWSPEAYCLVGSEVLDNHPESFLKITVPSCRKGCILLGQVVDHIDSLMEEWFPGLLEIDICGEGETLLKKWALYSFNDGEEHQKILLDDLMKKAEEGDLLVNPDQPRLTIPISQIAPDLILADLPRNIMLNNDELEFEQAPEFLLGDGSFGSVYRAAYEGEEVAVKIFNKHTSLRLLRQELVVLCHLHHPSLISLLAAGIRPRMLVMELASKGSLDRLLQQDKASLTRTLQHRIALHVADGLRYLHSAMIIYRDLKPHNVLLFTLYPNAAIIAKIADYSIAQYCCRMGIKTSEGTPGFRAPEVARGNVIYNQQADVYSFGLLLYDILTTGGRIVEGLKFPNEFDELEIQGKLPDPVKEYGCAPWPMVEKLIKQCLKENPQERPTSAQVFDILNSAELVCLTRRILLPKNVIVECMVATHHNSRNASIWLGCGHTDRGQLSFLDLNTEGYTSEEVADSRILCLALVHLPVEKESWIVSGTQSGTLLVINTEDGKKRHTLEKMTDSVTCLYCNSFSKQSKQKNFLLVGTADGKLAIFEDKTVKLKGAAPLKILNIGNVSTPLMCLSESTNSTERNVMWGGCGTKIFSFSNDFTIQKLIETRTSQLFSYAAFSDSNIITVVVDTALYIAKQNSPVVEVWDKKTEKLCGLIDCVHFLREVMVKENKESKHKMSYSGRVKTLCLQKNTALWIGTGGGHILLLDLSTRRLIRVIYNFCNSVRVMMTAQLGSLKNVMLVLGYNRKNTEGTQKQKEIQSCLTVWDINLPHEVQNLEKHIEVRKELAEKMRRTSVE
- assay protocol: LRRK2 Km ATP LanthaScreen Assay
- Format: biochemical
- protocol conditions: Examples N1-N25
measurement kind: IC50 (nM)
Provide the reading as a plain figure in nM.

Below are worked cases with known answers.
- compound: "CC(C)Oc1cc2c(-c3cc(N4CCC(n5cccn5)C4)ncn3)n[nH]c2cc1F (stereo not shown) [Example N13]"
  measured result: 6.1
- compound: "CC(C)Oc1cc2c(-c3cc(N4CCN(C5CCS(=O)(=O)C5)CC4)ncn3)n[nH]c2cc1F (stereo not shown) [Example N4]"
  measured result: 2.5
- compound: "CC(C)Oc1cc2c(-c3cc(N4CCn5ncnc5C4)ncn3)n[nH]c2cc1F [Example N1]"
  measured result: 7.1

Consider the additional compound presented here.
The compound listed as CC(C)Oc1cc2c(-c3cc(N4CCC(F)(C#N)CC4)ncn3)n[nH]c2cc1F [Example N16] shows IC50 equal to 17.7

====

- Test system: kinases
- assay protocol: Kinase selectivity using Z'-LYTE or Adapta
- Type: biochemical
- protocol conditions: 1 μM of Example; Z-LYTE platform
Measured percent inhibition MAPK1 (ERK2) of individual entries
Provide the reading as a plain figure in %.

Below are worked cases with known answers.
- molecule: "CC(C)Oc1ccc2[nH]nc(-c3cc(N4CCO[C@H](C)C4)ncn3)c2c1 [Example D2]"
  units label: "%"
  measured result: 5
- molecule: "CC(C)Oc1ccc2[nH]nc(-c3cc(N4CCN(CCF)CC4)ncn3)c2c1"
  units label: "%"
  measured result: 16
- molecule: "CC(C)Oc1cc2c(-c3cc(N4CCN(C)CC4)ncn3)n[nH]c2cc1F"
  units label: "%"
  measured result: 0

Consider the additional molecule presented here.
The molecule listed as CC(C)Oc1ccc2[nH]nc(-c3cc(N4CCOCC4)ncn3)c2c1 shows percent inhibition MAPK1 (ERK2) equal to 7

====

- experimental target: LRRK2(G2019S mutation, GST-LRRK2(amino acids 970-2527)) (Homo sapiens (Human), UniProt Q5S007, G2019S)
- assay protocol: LRRK2 Km ATP LanthaScreen Assay
- Assay type: biochemical
- protocol conditions: Km ATP (184 μM ATP solution), G2019S LRRK2, mean IC50
measurement kind: pIC50
Please treat pIC50 as minus the base-10 logarithm of the molar concentration.

- compound: "COCCOc1ccc2[nH]nc(-c3cc(N4CC5CCC(C4)O5)ncn3)c2c1"
  pIC50: 6.81
- compound: "CO[C@@H]1CN(c2cc(-c3n[nH]c4cc(F)c(-c5cnn(C)c5)cc34)ncn2)C[C@H]1O"
  pIC50: 7.44
- compound: "CCc1nnc2n1CCN(c1cc(-c3n[nH]c4ccc(OC(C)C)cc34)ncn1)C2"
  pIC50: 8.07

Consider the additional molecule presented here.
The molecule listed as Cn1cc(-c2cc3c(-c4cc(N5CCCC(F)(F)C5)ncn4)n[nH]c3cc2F)cn1 shows pIC50 equal to 7.63

====

- experimental target: LRRK2(G2019S mutation, GST-LRRK2(amino acids 970-2527)) (Homo sapiens (Human), UniProt Q5S007, G2019S)
- assay protocol: LRRK2 Km ATP LanthaScreen Assay
- Type: biochemical
- protocol conditions: Km ATP (184 μM ATP solution), G2019S LRRK2, mean IC50
pIC50: −log10 of the molar value.
Is pIC50 at least 8? Then condition met. If not, condition not met.

Please review the following examples before continuing.
- compound: "CC(C)Oc1ccc2[nH]nc(-c3cc(N4CC5CCC(C4)O5)ncn3)c2c1 [Example D8]"
  class name: "condition not met"
- compound: "CO[C@H]1CN(c2cc(-c3n[nH]c4ccc(OC(C)C)cc34)ncn2)C[C@@H]1O [Example J8]"
  class name: "condition not met"
- compound: "CC(C)Oc1ccc2[nH]nc(-c3cc(N4CC(n5cnnc5)C4)ncn3)c2c1 [Example J23]"
  class name: "condition not met"
- compound: "Cn1cc(-c2ccc3[nH]nc(-c4cc(N5CCNC(=O)C5)ncn4)c3c2)cn1 [Example A14]"
  class name: "condition met"
- compound: "Cn1cc(-c2ccc3[nH]nc(-c4cc(N5CCN(S(C)(=O)=O)CC5)ncn4)c3c2)cn1 [Example A3]"
  class name: "condition met"

Q) // inclusive: pIC50 at least 8? input: CS(=O)(=O)N1CCN(c2cc(-c3n[nH]c4ccc(-c5cnccn5)cc34)ncn2)CC1 [Example I2]
A) condition not met

Q) // inclusive: pIC50 at least 8? input: CC(C)Oc1ccc2[nH]nc(-c3cc(N4CCO[C@H](C)C4)ncn3)c2c1 [Example D2]
A) condition met

Q) // inclusive: pIC50 at least 8? input: Cn1cc(-c2cc3c(-c4cc(N5CCCC6(CCO6)C5)ncn4)n[nH]c3cc2F)cn1 (centres unmarked) [Example L15]
A) condition not met

Q) // inclusive: pIC50 at least 8? input: CCN1CCN(c2cc(-c3n[nH]c4cc(F)c(OC(C)C)cc34)ncn2)CC1=O [Example D36]
A) condition met

====

- experimental target: LRRK2(G2019S mutation, GST-LRRK2(amino acids 970-2527)) (Homo sapiens (Human), UniProt Q5S007, G2019S)
- assay protocol: LRRK2 Km ATP LanthaScreen Assay
- Type: biochemical
- protocol conditions: Km ATP (184 μM ATP solution), G2019S LRRK2, mean IC50
pIC50: −log10 of the molar value.
Is pIC50 at least 8? Then 1. If not, 0.

Please review the following examples before continuing.
- compound: "CCN1CCN(c2cc(-c3n[nH]c4ccc(-c5cnn(C)c5)cc34)ncn2)CC1 [Example A8]"
  class name: 1
- compound: "COCCOc1ccc2[nH]nc(-c3cc(N4CCN(C)CC4)ncn3)c2c1 [Example G4]"
  class name: 0
- compound: "Cn1cc(-c2ccc3[nH]nc(-c4cc(N5CCC(F)(F)C5)ncn4)c3c2)cn1 [Example M26]"
  class name: 1

Please find the next compound below.
Q) // inclusive: pIC50 at least 8? input: CC(C)Oc1cc2c(-c3cc(N4CCN(C)[C@@H](C)C4)ncn3)n[nH]c2cc1F [Example D50]
A) 1

====

Measured pIC50 of individual entries
- experimental target: LRRK2(G2019S mutation, GST-LRRK2(amino acids 970-2527)) (Homo sapiens (Human), UniProt Q5S007, G2019S)
- assay protocol: LRRK2 Km ATP LanthaScreen Assay
- Assay type: biochemical
- protocol conditions: Km ATP (184 μM ATP solution), G2019S LRRK2, mean IC50
- Procedure: Unless otherwise noted, all LRRK2 IC50 data presented in tables refers to the LRRK2 Km ATP LanthaScreen™ Assay that is described in the Biological Assay section. […] e) Plates are incubated at room temperature for 1 hour and read on an Envision™ multi-mode plate reader with LanthaScreen™ settings. Results are analysed using Assay Data Analyzer.
Please treat pIC50 as minus the base-10 logarithm of the molar concentration.

Below are worked cases with known answers.
- compound: "Cn1cc(-c2cc3c(-c4cc(N5CCCC(C)(O)C5)ncn4)n[nH]c3cc2F)cn1 (centres unmarked)"
  measured result: 7.17
- compound: "CC(C)Oc1ccc2[nH]nc(-c3cc(N4CCC(O)CC4)ncn3)c2c1"
  measured result: 8.23
- compound: "CC(C)Oc1cc2c(-c3cc(N4CCN(C(C)C)C(=O)C4)ncn3)n[nH]c2cc1F"
  measured result: 8.51
- compound: "Cn1cc(-c2cc3c(-c4cc(N5CC[C@@H](CO)C5)ncn4)n[nH]c3cc2F)cn1"
  measured result: 7.43
- compound: "CC(=O)N1CCN(c2cc(-c3n[nH]c4ccc(-c5cnn(C)c5)cc34)ncn2)CC1"
  measured result: 8.50

The compound listed as CC(=O)N1CCN(c2cc(-c3n[nH]c4ccc(OC(C)C)cc34)ncn2)CC1 shows pIC50 equal to 7.95

The compound listed as COC[C@H](C)Oc1ccc2[nH]nc(-c3cc(N4CCO[C@H](C)C4)ncn3)c2c1 shows pIC50 equal to 8.55

The compound listed as Cn1cc(-c2ccc3[nH]nc(-c4cc(N5CCn6ncnc6C5)ncn4)c3c2)cn1 shows pIC50 equal to 8.07

====

Measured pIC50 of individual entries
- experimental target: LRRK2(G2019S mutation, GST-LRRK2(amino acids 970-2527)) (Homo sapiens (Human), UniProt Q5S007, G2019S)
- assay protocol: LRRK2 Km ATP LanthaScreen Assay
- Format: biochemical
- protocol conditions: Km ATP (184 μM ATP solution), G2019S LRRK2, mean IC50
Please treat pIC50 as minus the base-10 logarithm of the molar concentration.

- molecule: "CC(C)Oc1ccc2[nH]nc(-c3cc(N4CCN(c5nnc(C6CC6)o5)CC4)ncn3)c2c1"
  measured result: 7.85
- molecule: "COCCNc1cc(-c2n[nH]c3ccc(-c4cnn(C)c4)cc23)ncn1"
  measured result: 7.83
- molecule: "CN(C)[C@H]1CN(c2cc(-c3n[nH]c4ccc(-c5cnn(C)c5)cc34)ncn2)C[C@@H]1O"
  measured result: 7.87
- molecule: "CO[C@H]1CCN(c2cc(-c3n[nH]c4ccc(OC(C)C)cc34)ncn2)C1"
  measured result: 8.06

The molecule listed as CCN1CCN(c2cc(-c3n[nH]c4ccc(OCCOC)cc34)ncn2)CC1 shows pIC50 equal to 7.01

The molecule listed as CCN1CCN(c2cc(-c3n[nH]c4ccc(OC(C)C)cc34)ncn2)CC1=O shows pIC50 equal to 8.25

The molecule listed as COC1CCCN(c2cc(-c3n[nH]c4ccc(OC(C)C)cc34)ncn2)C1 (centres unmarked) shows pIC50 equal to 7.90

The molecule listed as COC[C@H](C)Oc1ccc2[nH]nc(-c3cc(N4CCOCC4)ncn3)c2c1 shows pIC50 equal to 8.59
